Tested on: A498
Assay: NCI tumour cell line growth inhibition, 48 h
Activity calls are given as the source filed them. No stated cut-off is given here; in the data, active = GI50 up to about 1.1 µM and inactive = higher.
Measured GI50 values are reported for all entries that follow.
Quantity kind: GI50

>>> assay_result("N#Cc1cc([N+](=O)[O-])ccc1NC(=O)C(=O)C(C(=O)c1ccc2ccccc2c1)C1OCc2ccccc21 (stereo not given)")
"5.56 µM (inactive)"
>>> assay_result("CC12CCC(C(=O)OC1=O)C2(C)C (stereo not given)")
"> 100 µM (inactive)"
>>> assay_result("COc1cc(O)c2c(=O)c(OC)c(-c3ccc(OC)c(O)c3)oc2c1")
"3.44 µM (inactive)"
>>> assay_result("CN(C)c1ccccc1CN1CCCN(Cc2ccccc2N(C)C)C1c1ccncc1")
"12.4 µM (inactive)"
>>> assay_result("O=C(C=P(c1ccccc1)(c1ccccc1)c1ccccc1)c1cccc(-c2cccc([N+](=O)[O-])c2)c1")
"1.83 µM (inactive)"
>>> assay_result("Cc1sc2c(c1C)C(=O)c1cccn1-2")
"60 µM (inactive)"
>>> assay_result("CN(/N=N/c1[nH]cnc1C(N)=O)C1CCCCC1")
"> 100 µM (inactive)"
>>> assay_result("C[C@@H](CC(O)C1OC1(C)C)[C@@H]1CC[C@]2(C)C3=CCC4C(C)(C)C(O)CC[C@]4(C)C3CCC12C (stereo not given in full)")
"26.5 µM (inactive)"
>>> assay_result("OCCOc1ccc(-c2cc(-c3ccccn3)nc(-c3ccccn3)c2)cc1")
"3.3 µM (inactive)"
>>> assay_result("CC(C)(Cl)C(Cl)CC/C(CBr)=C(\\Cl)CBr (stereo not given)")
"19.2 µM (inactive)"
